Task for the reader: assign each of the following compounds its reported remaining at 0.5 min, 1 µM.
test details: in vitro
assay conditions: male, mouse, microsomes, % remaining, Replicate 1 / Replicate 2
Numbers only, in %.

I need remaining at 0.5 min, 1 µM for every entry listed below, if you could help.
1. O=C(O)[C@@H]1Cc2c([nH]c3cc(F)ccc23)[C@@H](c2ccc(Cl)cc2Cl)N1 [Compound 20c]
2. O=C(O)[C@@H]1Cc2c([nH]c3c(F)cccc23)[C@@H](c2ccc(Cl)cc2Cl)N1 [Compound 20d]

1: 100; 2: 100

----------
test details: in vivo
assay conditions: mouse, po, 40 mg/kg, Cmin
observation type: concentration at 24 h
A bare number is not enough; add the unit after it.

> print(dat)
                                   molecule       observation.type  endpoint.value
1  O=C(O)[C@@H]1Cc2c([nH]c3ccccc23)[C@@H](c2ccc(Cl)cc2Cl)N1 [Compound 1, reference compound]  concentration at 24 h          650 nM

From here, focus on the item given below.
Notebook: O=C(O)[C@@H]1Cc2c([nH]c3cc(F)ccc23)[C@@H](c2ccc(Cl)cc2Cl)N1 [Compound 20c] , concentration at 24 h read as 600 nM

----------
Task for the reader: assign each of the following compounds its reported half-life.
test details: in vivo
assay conditions: mouse, iv, 10 mg/kg, t1/2
Method: 3. Pharmacokinetics of 1 in mice Pharmacokinetic analysis of 1 in mice was performed by Pharmaron (Beijing, China). Three mice each (23 ± 1 g) were used for oral (40 mg/kg, gavage, conscious) and for IV (10 mg/kg, lateral tail vein with anesthesia) administration. The vehicle for both routes wa s 20% DMSO, 60% PEG400 and 20% SBE-β-CD (30% w/v) in water. […] Quantitation was performed by triple-quad LC-MS.
Answers are plain numbers, in h.

> print(dat)
                                   compound  endpoint.value
1  O=C(O)[C@@H]1Cc2c([nH]c3ccccc23)[C@@H](c2ccc(Cl)cc2Cl)N1 [Compound 1, reference compound]             9.9

From here, focus on the item given below.
Notebook: O=C(O)[C@@H]1Cc2c([nH]c3cc(F)ccc23)[C@@H](c2ccc(Cl)cc2Cl)N1 [Compound 20c] , half-life read as 4.96

----------
Task for the reader: assign each of the following compounds its reported bioavailability.
test details: in vivo
assay conditions: mouse, po, 40 mg/kg, % F

> print(dat)
                                   compound  endpoint.value
1  O=C(O)[C@@H]1Cc2c([nH]c3ccccc23)[C@@H](c2ccc(Cl)cc2Cl)N1 [Compound 1, reference compound]             57%

Notebook: O=C(O)[C@@H]1Cc2c([nH]c3cc(F)ccc23)[C@@H](c2ccc(Cl)cc2Cl)N1 [Compound 20c] , bioavailability read as 58%

----------
test details: in vivo
assay conditions: mouse, po, 40 mg/kg, %F
Task for the reader: assign each of the following compounds its reported bioavailability.
One number for each entry, in %.

> print(dat)
                                   compound  unit.info  endpoint.value
1  O=C(O)[C@@H]1Cc2c([nH]c3cc(F)ccc23)[C@@H](c2ccc(Cl)cc2Cl)N1 [Compound 20c]          %            57.8

From here, focus on the item given below.
Notebook: O=C(O)[C@@H]1Cc2c([nH]c3ccccc23)[C@@H](c2ccc(Cl)cc2Cl)N1 [Compound 1, reference compound] , bioavailability read as 57

----------
test details: in vitro
assay conditions: male, mouse, microsomes
observation type: half-life at 1 µM

Notebook: O=C(O)[C@@H]1Cc2c([nH]c3ccccc23)[C@@H](c2ccc(Cl)cc2Cl)N1 [Compound 1, reference compound] , half-life at 1 µM read as ~10 min

----------
test details: in vivo
assay conditions: mouse, po, 40 mg/kg, plasma concentration
observation type: concentration at 1 h (µM)
One number for each entry, in µM.

> print(dat)
                                   molecule      observation.type  endpoint.value
1  O=C(O)[C@@H]1Cc2c([nH]c3cc(F)ccc23)[C@@H](c2ccc(Cl)cc2Cl)N1 [Compound 20c]  concentration at 1 h            13.9

From here, focus on the item given below.
Notebook: O=C(O)[C@@H]1Cc2c([nH]c3ccccc23)[C@@H](c2ccc(Cl)cc2Cl)N1 [Compound 1, reference compound] , concentration at 1 h read as 12.7

----------
test details: in vivo
assay conditions: mouse, iv, 10 mg/kg, plasma concentration
observation type: concentration at 2 h (nM)
Answers are plain numbers, in nM.

> print(dat)
                                   compound  unit.info  endpoint.value
1  O=C(O)[C@@H]1Cc2c([nH]c3cc(F)ccc23)[C@@H](c2ccc(Cl)cc2Cl)N1 [Compound 20c]         nM            3300

From here, focus on the item given below.
Notebook: O=C(O)[C@@H]1Cc2c([nH]c3ccccc23)[C@@H](c2ccc(Cl)cc2Cl)N1 [Compound 1, reference compound] , concentration at 2 h read as 1300

----------
test details: in vivo
assay conditions: mouse, iv, 10 mg/kg, plasma concentration
Task for the reader: assign each of the following compounds its reported concentration at 24 h.

> print(dat)
                                   compound  endpoint.value
1  O=C(O)[C@@H]1Cc2c([nH]c3cc(F)ccc23)[C@@H](c2ccc(Cl)cc2Cl)N1 [Compound 20c]          0.1 µM

From here, focus on the item given below.
Notebook: O=C(O)[C@@H]1Cc2c([nH]c3ccccc23)[C@@H](c2ccc(Cl)cc2Cl)N1 [Compound 1, reference compound] , concentration at 24 h read as 0.16 µM

----------
test details: in vivo
assay conditions: mouse, po, 40 mg/kg, t1/2
observation type: half-life (h)
Give bare numbers, in h.

> print(dat)
                                   compound  unit.info  endpoint.value
1  O=C(O)[C@@H]1Cc2c([nH]c3ccccc23)[C@@H](c2ccc(Cl)cc2Cl)N1 [Compound 1, reference compound]          h             8.5

From here, focus on the item given below.
Notebook: O=C(O)[C@@H]1Cc2c([nH]c3cc(F)ccc23)[C@@H](c2ccc(Cl)cc2Cl)N1 [Compound 20c] , half-life read as 5.17

----------
test details: in vivo
assay conditions: mouse, iv, 10 mg/kg, plasma concentration
observation type: concentration at 0.5 h (µM)
Numbers only, in µM.

I need concentration at 0.5 h for every entry listed below, if you could help.
1. O=C(O)[C@@H]1Cc2c([nH]c3ccccc23)[C@@H](c2ccc(Cl)cc2Cl)N1 [Compound 1, reference compound]
2. O=C(O)[C@@H]1Cc2c([nH]c3cc(F)ccc23)[C@@H](c2ccc(Cl)cc2Cl)N1 [Compound 20c]

[14.8, 14.4]

----------
test details: in vivo
assay conditions: mouse, po, 40 mg/kg
observation type: Cmax (µM)
Numbers only, in µM.

> print(dat)
                                   compound  observation.type  endpoint.value
1  O=C(O)[C@@H]1Cc2c([nH]c3ccccc23)[C@@H](c2ccc(Cl)cc2Cl)N1 [Compound 1, reference compound]              Cmax            46.1

From here, focus on the item given below.
Notebook: O=C(O)[C@@H]1Cc2c([nH]c3cc(F)ccc23)[C@@H](c2ccc(Cl)cc2Cl)N1 [Compound 20c] , Cmax read as 19.9

----------
test details: in vivo
assay conditions: mouse, iv, 10 mg/kg, plasma concentration
observation type: concentration at 1 h (µM)
Numbers only, in µM.

> print(dat)
                                   compound  endpoint.value
1  O=C(O)[C@@H]1Cc2c([nH]c3cc(F)ccc23)[C@@H](c2ccc(Cl)cc2Cl)N1 [Compound 20c]             9.7

From here, focus on the item given below.
Notebook: O=C(O)[C@@H]1Cc2c([nH]c3ccccc23)[C@@H](c2ccc(Cl)cc2Cl)N1 [Compound 1, reference compound] , concentration at 1 h read as 4.8

----------
test details: in vitro
assay conditions: male, mouse, microsomes, % remaining, Replicate 1 / Replicate 2
observation type: remaining at 0.25 h, 1 µM (%)
Answers are plain numbers, in %.

> print(dat)
                                   molecule  endpoint.value
1  O=C(O)[C@@H]1Cc2c([nH]c3cc(F)ccc23)[C@@H](c2ccc(Cl)cc2Cl)N1 [Compound 20c]            84.7

From here, focus on the item given below.
Notebook: O=C(O)[C@@H]1Cc2c([nH]c3c(F)cccc23)[C@@H](c2ccc(Cl)cc2Cl)N1 [Compound 20d] , remaining at 0.25 h, 1 µM read as 34.3

meta.source: paper PMC12378621
